test system: SK-MEL-28 melanoma; experiment: NCI tumour cell line growth inhibition, 48 h
observationType: TGI

See these solved cases before continuing.
O=C1OC(c2ccccc2)=N/C1=C\c1ccc(Cl)cc1; > 100 µM
Cn1c(=O)c2ccccc2c2ccccc21; > 100 µM
CCC(=O)c1c(C(F)(F)F)n([O-])c2cc(N3CCNCC3)c(F)cc2[n+]1=O; 21.9 µM
COc1cc(C2CC(c3cccc(Nc4ccnc5cc(Cl)ccc45)c3)=NN2C=O)cc(OC)c1OC (stereo unspecified); 4.26 µM
CCCCCCCCCC(CCCC(O)CC(=O)O)OC1OC(COC2OC(C)C(O)C(O)C2O)C(O)C(O)C1OC1OC(CO)C(O)C(O)C1OC1OC(C)C(OC(=O)CC(C)C)C(O)C1O (stereo unspecified); > 60 µM

Would you kindly look at the next entry?
Data request: Entry CN(C)c1nc(N)nc(CCl)n1 needs its TGI filled in; supply it.
Data returned: > 100 µM
